test system: Plasmodium berghei; test: Luciferase/luciferin-expressing antifolate-resistant parasites were used to infect a culture of HepG2 cells that were pre-incubated with compounds. Infected hepatocytes emit light due to the luciferase reaction. Assay results are presented as the percent inhibition of light emission compared to control. […]; assay type: functional; settings: sporozoite, HEPG2TOX_HILL_SLOPE 0.921, HEPG2TOX_R_SQUARED 0.497, read-out: LUCIFERASE INFECTION ASSAY - IC50
Measured Endpoint: IC50

## Input Return reported IC50; argument: CN(C)c1ccccc1-c1cnc2sc(NCCc3ccncc3)nn12
## Output > 9.05 µM

* * *

test system: Plasmodium berghei; test: Luciferase/luciferin-expressing antifolate-resistant parasites were used to infect a culture of HepG2 cells that were pre-incubated with compounds. Infected hepatocytes emit light due to the luciferase reaction. Assay results are presented as the percent inhibition of light emission compared to control. […]; format: functional; details: sporozoite, HEPG2TOX_HILL_SLOPE 7.23, HEPG2TOX_R_SQUARED 0.683, PBLUC_HILL_SLOPE 1.88, PBLUC_R_SQUARED 0.215, read-out: LUCIFERASE INFECTION ASSAY - IC50
Measured Endpoint: IC50 (µM)
Expressed in µM, but write only the number.

## Input Recorded IC50 for COc1cc2c(cc1OC)C(c1cccs1)N(Cc1cc(-c3ccco3)on1)CC2 (stereo unspecified) , please?
## Output 9.72
